Target: CD3ε homodimer protein (human, UniProt P07766 23-126, limits assumed)
Sequence (P07766 23-126 limits assumed): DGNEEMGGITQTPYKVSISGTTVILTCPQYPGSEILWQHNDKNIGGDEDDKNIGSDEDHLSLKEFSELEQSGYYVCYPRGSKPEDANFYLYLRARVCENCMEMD
Experiment: SPR, immobilized CD3ε homodimer;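 note: biacore T200 surface plasmon resonance at 25 °C, antibody variants flowed as analytes over amine-coupled CD3ε homodimer on a CM4 chip, variant binding amount divided by that of GLS3000 antibody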
Threshold rule: ratio of amounts bound (vs GLS3000) greater than or equal to 0.9 is TRUE; below that, FALSE.

Q) Does the binder GLS3000 S56M (antibody, name in Kabat numbering, V domains shown, one-arm format as m2) VH: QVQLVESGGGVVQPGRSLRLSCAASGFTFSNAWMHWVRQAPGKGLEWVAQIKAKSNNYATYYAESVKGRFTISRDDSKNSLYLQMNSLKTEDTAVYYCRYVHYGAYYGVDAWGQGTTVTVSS VL: DIVMTQSPLSLPVTPGEPASISCRSSQSLVHSNRNTYLHWYQQKPGQAPRLLIYKVSNRFMGVPDRFSGSGSGTDFTLKISRVEAEDVGVYYCGQGTQVPYTFGQGTKLEIK have recorded ratio of amounts bound (vs GLS3000) that is 0.9 or more?
A) TRUE
